Cited source for all entries: patent US7423158B2

melting point reference

Below, each entry is followed by its recorded melting point result.
> print(dat)
                                   compound  observed.property      reading
1  CN1C(=O)C(c2ccc(OC(F)F)cc2)(c2cccc(CCCC(F)F)c2)N=C1N (centres unmarked)      melting point  54 to 57 °C
2  CN1C(=O)C(c2ccc(OC(F)F)cc2)(c2cccc(CCCCO)c2)N=C1N (centres unmarked)      melting point  63 to 66 °C
3  CCOCc1cccc(C2(c3ccc(OC(F)F)cc3)N=C(N)N(C)C2=O)c1 (centres unmarked)      melting point  45 to 48 °C
4  CN1C(=O)C(c2ccc(OC(F)F)cc2)(c2cccc(CCCCC#N)c2)N=C1N (centres unmarked)      melting point        65 °C
5  CN1C(=O)C(c2ccc(OC(F)F)cc2)(c2cccc(COCCF)c2)N=C1N (centres unmarked)      melting point  40 to 43 °C
6  COCCCc1cccc(C2(c3ccc(OC(F)F)cc3)N=C(N)N(C)C2=O)c1 (centres unmarked)      melting point  48 to 50 °C

[in] State the recorded melting point for this entry: C=C(F)CCc1cccc(C2(c3ccc(OC(F)F)cc3)N=C(N)N(C)C2=O)c1 (centres unmarked)
[out] 58 to 60 °C

[in] Try this compound next: CN1C(=O)C(c2ccc(OC(F)F)cc2)(c2cccc(COCC(F)(F)C(F)F)c2)N=C1N (centres unmarked)
[out] 48 to 50 °C

[in] Try this compound next: C=CCCc1cc(C2(c3ccc(OC(F)F)cc3)N=C(N)N(C)C2=O)ccc1F (centres unmarked)
[out] 55 to 58 °C

[in] Try this compound next: CN1C(=O)C(c2ccc(OC(F)F)cc2)(c2cccc(OCCCF)c2)N=C1N (centres unmarked)
[out] 161 to 162 °C

[in] Try this compound next: CCOC(=O)C=C1CC(c2cccc(C3(c4ccc(OC(F)F)cc4)N=C(N)N(C)C3=O)c2)C1 (centres unmarked)
[out] 78 to 80 °C

[in] Try this compound next: CCCNC(=O)c1cccc(C2(c3ccc(OC(F)F)cc3)N=C(N)N(C)C2=O)c1 (centres unmarked)
[out] 93 to 96 °C

[in] Try this compound next: CN1C(=O)C(c2ccc(OC(F)F)cc2)(c2cccc(OCCCCF)c2)N=C1N (centres unmarked)
[out] 139 to 140 °C

[in] Try this compound next: CN1C(=O)C(c2ccc(OC(F)F)cc2)(c2cccc(CCF)c2)N=C1N (centres unmarked)
[out] 60 to 63 °C

[in] Try this compound next: CCCOCc1cccc(C2(c3ccc(OC(F)F)cc3)N=C(N)N(C)C2=O)c1 (centres unmarked)
[out] 40 to 43 °C

[in] Try this compound next: CN1C(=O)C(c2ccc(OC(F)F)cc2)(c2cccc(C3CC(=O)C3)c2)N=C1N (centres unmarked)
[out] 68 to 70 °C

[in] Try this compound next: CN1C(=O)C(c2ccc(OC(F)F)cc2)(c2cccc(OCCCC(F)(F)F)c2)N=C1N (centres unmarked)
[out] 82 to 85 °C

[in] Try this compound next: COCc1cccc(C2(c3ccc(OC(F)F)cc3)N=C(N)N(C)C2=O)c1 (centres unmarked)
[out] 70 to 72 °C

[in] Try this compound next: COC(=O)CC1CC(c2cccc(C3(c4ccc(OC(F)F)cc4)N=C(N)N(C)C3=O)c2)C1 (centres unmarked)
[out] 68 to 70 °C

[in] Try this compound next: CN1C(=O)C(c2ccc(OC(F)F)cc2)(c2cccc(COCC3CC3)c2)N=C1N (centres unmarked)
[out] 47 to 50 °C

[in] Try this compound next: CN1C(=O)C(c2ccc(OC(F)F)cc2)(c2cccc(C3CC(=O)C3(C)C)c2)N=C1N (centres unmarked)
[out] 172 to 174 °C

[in] Try this compound next: CN1C(=O)C(c2ccc(OC(F)F)cc2)(c2cccc(COC(CF)CF)c2)N=C1N (centres unmarked)
[out] 46 to 50 °C

[in] Try this compound next: CN1C(=O)C(c2ccc(OC(F)F)cc2)(c2cccc(C3CC(O)C3)c2)N=C1N (centres unmarked)
[out] 186 to 190 °C

[in] Try this compound next: COCCCCc1cccc(C2(c3ccc(OC(F)F)cc3)N=C(N)N(C)C2=O)c1 (centres unmarked)
[out] 36 to 39 °C

[in] Try this compound next: CN1C(=O)C(c2ccc(OC(F)F)cc2)(c2cccc(COCCC(F)(F)F)c2)N=C1N (centres unmarked)
[out] 46 to 48 °C

[in] Try this compound next: CCCCOCc1cccc(C2(c3ccc(OC(F)F)cc3)N=C(N)N(C)C2=O)c1 (centres unmarked)
[out] 37 to 39 °C
